Attribution: PubChem BioAssay

# maps each entry to its z-score
Assay: inhibitors of hydroxyurea-induced Chk1 phosphorylation, primary screen, imaging, HeLa, phospho-Chk1 nuclear intensity (AID 1187); note: test concentration not given here
Conditions: hydroxyurea-induced phospho-Chk1 immunofluorescence imaging, higher = more signal
API doc: respond with a numeric literal and nothing else, no unit.

Please review the following examples before continuing.
[
  {
    "compound": "CC(C)[Si](C#C[Si](C(C)C)(C(C)C)C(C)C)(O[C@H](C)c1cn([C@H](CO)Cc2ccccc2)nn1)C(C)C",
    "measurement-label": "z-score",
    "endpoint-value": -0.36
  },
  {
    "compound": "COC(=O)[C@@]1(Cc2ccccc2)[C@H]2c3cc(C(=O)N(C)C)n(Cc4c(CO)[nH]cc(C)c4=O)c3C[C@H]2CN1C(=O)c1ccccc1",
    "measurement-label": "z-score",
    "endpoint-value": 0.0707
  }
]

Shift focus to the following entry.
Ask: Record request: z-score value, item [N-]=[N+]=NCc1ccccc1[C@@H]1OC(c2ccc(OCCCO)cc2)=N[C@]1(CCS(=O)(=O)c1ccccc1)C(=O)NCC(O)CO (stereo partly drawn)
Result: -0.524
